Just for reference, the supplement of paper PMC12764529 is where these values come from.

- Assay explanation: folding stability dG unfold from trypsin proteolysis; higher = more stable
Property label: folding stability dG unfold (kcal/mol)
Answers are plain numbers, in kcal/mol.

In the examples that follow, each entry is paired with its recorded folding stability dG unfold.
Sequence: SAGGSAGGSAGGSMYVIVTVPPGERLTFPLNPEIDVPEEEIKEKLKKELPVESIEILLPSAGGSAGGSAGGS [r4_116_JUSTAS]
folding stability dG unfold [kcal/mol]: -0.362

Sequence: SNIKNIKRVEIYYNPENGWMPKIKVEYPGGEREFMFPPDQAEELLNWLQQKGLPMKITDVEYHPMPPDQMSA [r9_607_TrROS]
folding stability dG unfold [kcal/mol]: 0.911

Sequence: SMKITIVENEDGSLKIKVYFKDTGKVVEKTFEKGETIEEQVKKLAEELEKELGLEVVDVEIVKLPPPEKPSA [r9_1205_TrROS_Hall]
folding stability dG unfold [kcal/mol]: 2.63

-- ask folding stability dG unfold for SAGGLIEKLKELGFEIVSVEEREETLPNGKKVRTVKITVKLPNGELVKIEVRVLPNGEVIIKIEVKKPSAGG [r13_818_TrROS_Hall] ?
-- reply 3.72

----------
- Assay explanation: folding stability dG unfold from chymotrypsin proteolysis; higher = more stable
Quick rule for you: folding stability dG unfold at 8 kJ/mol or higher means condition met, lower means condition not met.

Sequence: SAGGSAMTVVKVTLKSPSGTTTVTLPAEEWERFLAAPEVSKTWTLTEVVEEEEPPPELDPEAVELGSAGGSA [r15_460_JUSTAS]
Label class: condition not met

Sequence: SAGMTITVESLEDALALAEELAEKYPGLKVTVEVRLSPDGKTVEVRVTIEPAPPVKVVDPETGEEVEEESAG [r5_870_TrROS_Hall]
Label class: condition met

Sequence: SAGKLVLKPGETVEIGDMTIHFHPDGRVSATFPDGRSAAIRVTVDTDTDVVGFEFVEEHPDVGHTDAPGSAG [r5_33_TrMRF]
Label class: condition not met

Sequence: SAGGSAGGSAGGGVTLPTGDIVVPVEYTTTVPVLTYNPTLGVSYFFTLTVTTSSTVYVGLSAGGSAGGSAGG [r7_374_JUSTAS]
Label class: condition met

-- ask Tell me whether folding stability dG unfold is at least 8 kJ/mol here: SAGSYSVTADVTVHPDGTVDVTLTITTNGEDGTTETSTVLPLTLDLPPGTAVTVTVDPNNGTVTVTVEASAG [r5_179_JUSTAS]
-- reply condition met

-- ask For this sequence, is measured folding stability dG unfold 8 kJ/mol or higher? SAGKYKIKNVQFSNNSITIEIYDDGKPKAEIPIPPNFPNMKVDAEIDEDGSIKIKFRFNGQPQEIEIPPSAG [r5_533_TrROS]
-- reply condition not met

-- ask Threshold query (folding stability dG unfold >= 8 kJ/mol) on SAGGSAGGSAGMKTLKTTTKVFPGTGVIVTESLVEFPNGSLKKLTKVTYVKNPNPSTTLASAGGSAGGSAGG [r17_41_JUSTAS]
-- reply condition not met

-- ask Does the sequence SAGGSAGGSAMRELVKRAAKNGNPGQKVMIRPPDKRYFPITVEGNKIEPKDLPPGWEVHVISAGGSAGGSAG [r3_244_TrROS] have recorded folding stability dG unfold that is 8 kJ/mol or more?
-- reply condition not met

-- ask Please check the record SAGGSALTLNDKSLIPKPFPKKKAIVDVAVPLPPNLTLEEALEVAEAIANNLLKAGKIDEATVAIYSAGGSA [r15_450_TrMRF] and state if its folding stability dG unfold is at or above 8 kJ/mol.
-- reply condition not met

----------
- Assay explanation: folding stability dG unfold from trypsin proteolysis; higher = more stable
Use Yes when the recorded folding stability dG unfold is no lower than 0.8 kcal/mol; use No when it is lower.

Check out these entries, answers already filled in.
Sequence: SAGGSAGGSAGGKKVKVLTLTIELEVKDSNGKKYKVKATVTLIYDEKTKKLYLNISIEPSAGGSAGGSAGGS [r10_795_TrROS_Hall]
Label class: Yes

Sequence: SAGGMEKAIKEIKEAAKKGEEAVIVLPKNVDPSELISAIEKETGAKVEPLEVKPLPNGELVIKIKVKSAGGS [r16_318_TrMRF]
Label class: Yes

Sequence: SAGGSAGGSAGKVVVDFGKPALAEAFGVPLSEIENMSEEEALALAKPLVEEGVVDEVVLSSAGGSAGGSAGG [r11_80_TrMRF]
Label class: Yes

Sequence: SAGGSAGGGMKVKKIEIKKDPNNPNIYTITIELEDEPIEYTVPPSTPTTIKKPGGKPLYSSPLPSAGGSAGG [r6_922_JUSTAS]
Label class: No

Sequence: SAGGLLPALLAPGFRKPPELPLVVVEAPIEEAVALAKENPSLGVLLVRVGGKLYLIDPKTGKVAPLGSAGGS [r16_214_TrMRF]
Label class: No

-- ask Does the sequence SAGGSAEKEVYLVPFESEEKREKLREALLAEPGIEEVKETEDGVLLVTVPKGLSDKVEKAIKEAGISAGGSA [r15_834_TrMRF] have recorded folding stability dG unfold that is 0.8 kcal/mol or more?
-- reply Yes

-- ask Dear colleague, could you confirm whether SAGGSAGGSKLKPFPIKLPGDLSMTIVELPEDPRFIVTVWHPDGDKPIDSIEFEPDEFEANVGSAGGSAGGS [r20_190_TrMRF] has folding stability dG unfold at or above 0.8 kcal/mol?
-- reply No

-- ask Would you say SAGGSAGGSAMRELVKRAAKNGNPGQKVMIRPPDKRYFPITVEGNKIEPKDLPPGWEVHVISAGGSAGGSAG [r3_244_TrROS] shows folding stability dG unfold at minimum 0.8 kcal/mol?
-- reply No

----------
- Assay explanation: folding stability dG unfold (combined trypsin and chymotrypsin); higher = more stable
Property label: folding stability dG unfold (kcal/mol)
Answers are plain numbers, in kcal/mol.

Here's what some known entries look like.
Sequence: SAGGSAGGSAGGSGPEPKFTVEVDPEKDEVTFLVELEDKPLLLVVKDWPEDDPLLKNAFSAGGSAGGSAGGS [r4_328_TrMRF]
Number: 0.0825

Sequence: SAGGKMSLEDIKEVKITKISEEELKKNGTIKIEIYNKNGKLIKTIEIKIKPVKVKDKDGKEKTLEELKSAGG [r13_864_TrROS_Hall]
Number: 1.29

Sequence: SAGGSAKGLKVTFSHPDVEILSVKSYPGLGLAEVEFRYGDKLYRALVRFEPDDGGIAEATVEPVPGSAGGSA [r15_297_TrMRF]
Number: 2.55

For every item in the list below, what is its measured folding stability dG unfold?
1. SAGGSAGGSAGGWYIYFPNHYYPIKKITINPGGNIEIEFPNGNERTFDNVSIMPPGQEISAGGSAGGSAGGS [r10_1151_TrROS]
2. SRIKITVKPKPDGNFYIKIWFPNNGKPFIFPIKNPDAMDEARDDPGQTIEVPEDYLRSLFPDNFTDVEIVSA [r9_390_TrROS]
3. SAGGSAGGSMKIPEDETYEEKLPDGRKVTYTWEPESGLLKTTTTDPNNDTPTTSTYKVPPSSLLSAGGSAGG [r6_407_JUSTAS]

-- reply
1: 0.219; 2: 1.25; 3: 0.262

----------
- Assay explanation: folding stability dG unfold from trypsin proteolysis; higher = more stable
Answer each item with its documented folding stability dG unfold.
Field: value (include unit after the number)

These recorded examples may help you get a feel for the data.
Sequence: SAGGSAMKVDPSTKVVTVTDPKTGKEYRVNLPDVPPEKGVEVKVDNGKVTVKTEEGVRVIPYSELKSAGGSA [r15_864_JUSTAS]
folding stability dG unfold: 0.609 kcal/mol
//
Sequence: SAGGSAGGSAGGSGVLNIDEVWEDPESDLYTVVTTGEDEGTRVFVFDKNGKLLAEADLPSAGGSAGGSAGGS [r4_259_TrMRF]
folding stability dG unfold: 0.274 kcal/mol
//
Sequence: SAGGTFQVKDPNGKQKPVQLRVRITFEFKGGDKQTFEIEVEGATVDDLREFANSLMNKGFKPVSIEIWSAGG [r13_227_TrROS]
folding stability dG unfold: 1.59 kcal/mol
//
Sequence: SAGGMPEPRPIPLTLTLLVDPEDPESVEEKLREFFEAFGADEITRVERELLPDGRALVTAEVLVNEPVSAGG [r13_222_TrMRF]
folding stability dG unfold: 1.03 kcal/mol
//
Sequence: SAGSRVLTLVFEIPGRPEVVENLPEDVVLPDGARLYRDGERLLLVVEREVPSLPVLDADGRPVGPELLSAGG [r19_148_TrMRF]
folding stability dG unfold: 0.4 kcal/mol

Working through the 3 sequences below one at a time, give folding stability dG unfold for each.
1. SAGGMITTSTLSDGTTVVTIRVPGSPEEADAVAEEVREALLAAGYRTVEVSREPVEDGWVVTITTVSSAGGS [r8_113_JUSTAS]
2. SAGGSAGGSAGGLAPAPDGSPVAVLLDDGRVVVFDPETAELYVAFVTPDSVRVVPLPLDLSAGGSAGGSAGG [r7_527_TrMRF]
3. SAGGSAGGSAGGLPPDVRLRVRITRPDGTVLEFDAPADVEIFFPDVPPEWRIEVDAEDVSAGGSAGGSAGGS [r10_774_TrMRF]

-- reply
["3.28 kcal/mol", "-0.565 kcal/mol", "0.732 kcal/mol"]
